Species: Rattus norvegicus
Assay: DrugMatrix - Regimen: Daily Repeat
Assay type: toxicity, organism-based, Sprague-Dawley
Set-up: regimen Daily Repeat, gender Male, age 6-8 weeks
Details: in vivo, po, 0 mg/kg, 72 h, tissue Plasma, route oral GAVAGE, dose level Control, time 3 day, vehicle .5 % CMC
Could you please report measured GLUCOSE for the items listed next?
Answer shape: numeric part, then the unit.

Consider the reported GLUCOSE for these compounds:
Let me know recorded GLUCOSE for CCCCC1C(=O)N(c2ccccc2)N(c2ccccc2)C1=O , thanks.
152 mg/dL

Identify measured GLUCOSE corresponding to C[C@@H]1CC[C@H]2[C@@H](C)C(=O)O[C@@H]3O[C@@]4(C)CC[C@@H]1[C@]32OO4
151.67 mg/dL

Fill in GLUCOSE for record C[C@@H](O)[C@H]1C(=O)N2C(C(=O)O)=C(S[C@@H]3CN[C@H](C(=O)N(C)C)C3)[C@H](C)[C@H]12
171.33 mg/dL

New cases:
Identify GLUCOSE associated with the compound CN1C(=O)CN=C(c2ccccc2)c2cc(Cl)ccc21
142.67 mg/dL

* * *

Organism: Rattus norvegicus
Experiment: DrugMatrix - Regimen: Daily Repeat
Type: toxicity, organism-based, Sprague-Dawley
Parameters: regimen Daily Repeat, gender Male, age 6-8 weeks
Details: in vivo, po, 0 mg/kg, 120 h, tissue Plasma, route oral GAVAGE, dose level Control, time 5 day, vehicle .5 % CMC
Readout type: GLUCOSE (mg/dL)
Give bare numbers, in mg/dL.

Look over these answered cases.
Supply GLUCOSE value. Item: CCOC(=O)[C@H](CCc1ccccc1)N[C@@H](C)C(=O)N1Cc2ccccc2C[C@H]1C(=O)O
177.83

Entry CC[C@]1(O)CC[C@H]2[C@@H]3CCC4=CCCC[C@@H]4[C@H]3CC[C@@]21C needs its GLUCOSE filled in; supply it.
168.17

Please give measured GLUCOSE of the following entry: C[C@@H](O)[C@H]1C(=O)N2C(C(=O)O)=C(S[C@@H]3CN[C@H](C(=O)N(C)C)C3)[C@H](C)[C@H]12 [MEROPENEM]
168.83

Give a short answer stating reported GLUCOSE for CC(=O)O[C@]1(C(C)=O)CC[C@H]2[C@@H]3C=C(Cl)C4=CC(=O)[C@@H]5C[C@@H]5[C@]4(C)[C@H]3CC[C@@]21C [CYPROTERONE ACETATE] .
177.83

Tell me GLUCOSE reported for C[C@@H]1CC[C@H]2[C@@H](C)C(=O)O[C@@H]3O[C@@]4(C)CC[C@@H]1[C@]32OO4 [ARTEMISININ]
150.5

For every item below, please supply its GLUCOSE.
1. CN1C(=O)CN=C(c2ccccc2)c2cc(Cl)ccc21 [DIAZEPAM]
2. CC(C(=O)O)c1ccc(-c2ccccc2)c(F)c1 (stereo not drawn) [FLURBIPROFEN]
3. Nc1cccc(Cl)c1 [3-CHLOROANILINE]

141.83
168.83
155

* * *

What ERYTHROCYTE COUNT was measured for each of the following?
Species: Rattus norvegicus
Test: DrugMatrix - Regimen: Daily Repeat
Type: toxicity, organism-based, Sprague-Dawley
Design: regimen Daily Repeat, gender Male, age 6-8 weeks
Conditions: in vivo, po, 0 mg/kg, 72 h, tissue Blood, route oral GAVAGE, dose level Control, time 3 day, vehicle .5 % CMC
Numbers only, in x10E6/uL.

Here's what some known entries look like.
For the molecule CC(C(=O)O)c1ccc(-c2ccccc2)c(F)c1 (stereo not drawn) [FLURBIPROFEN] , give its reported ERYTHROCYTE COUNT.
5.76

State its ERYTHROCYTE COUNT for this molecule: CN1C(=O)CN=C(c2ccccc2)c2cc(Cl)ccc21 [DIAZEPAM]
5.76

Then there is this molecule:
In one line, give reported ERYTHROCYTE COUNT of the entry CC[C@]1(O)CC[C@H]2[C@@H]3CCC4=CCCC[C@@H]4[C@H]3CC[C@@]21C .
6.55

* * *

Species on record: Rattus norvegicus
Assay: DrugMatrix - Regimen: Daily Repeat
Assay type: toxicity, organism-based, Sprague-Dawley
Design: regimen Daily Repeat, gender Male, age 6-8 weeks
Conditions: in vivo, po, 0 mg/kg, 120 h, tissue Plasma, route oral GAVAGE, dose level Control, time 5 day, vehicle 100 % WATER
Readout type: TOTAL BILIRUBIN (mg/dL)
One number for each entry, in mg/dL.

Give the reported value of TOTAL BILIRUBIN for this record: O=C(O)c1cccnc1 [NIACIN]
0.22

Determine from records and report TOTAL BILIRUBIN for O=C(O)c1cc(=O)c2c(OCC(O)COc3cccc4oc(C(=O)O)cc(=O)c34)cccc2o1 [CROMOLYN]
0.58

Give TOTAL BILIRUBIN for O=P1(N(CCCl)CCCl)NCCCO1 (centres undefined) [CYCLOPHOSPHAMIDE ANHYDROUS]
0.13

Next:
Assign TOTAL BILIRUBIN to the following record: Nc1ccc(S(=O)(=O)Nc2nccs2)cc1 [SULFATHIAZOLE]
0.22

Source: ChEMBL document CHEMBL3885881
